- System: HeLa
- assay_protocol: Cytotoxicity against human HeLa cells assessed as cell viability by colorimetric formazan-based MTS assay
attribute_measured: log10 CC50 (log10 of the value in µM)

1) O=c1[nH]c(=O)n([C@H]2C[C@H](O)[C@@H](CO)O2)cc1/C=C/Br [BRIVUDINE]; 2.56
2) CCOC(=O)c1c(C)nc(NCCNc2ccnc3cc(Cl)ccc23)nc1-c1ccccc1; 0.90
3) Nc1ccn(C[C@@H](CO)OCP(=O)(O)O)c(=O)n1 [CIDOFOVIR]; 1.71
4) Nc1nc2c(ncn2COCCO)c(=O)[nH]1 [ACYCLOVIR]; 2.73
5) CCOC(=O)c1c(C)nc(NCCCCNc2ccnc3cc(Cl)ccc23)nc1-c1ccccc1; 0.26
6) Cc1nc(NCCCCNc2ccnc3cc(Cl)ccc23)nc(-c2ccccc2[N+](=O)[O-])c1C(=O)OC(C)C; 0.64
7) CCOC(=O)c1c(C)nc(NCCCCNc2ccnc3cc(Cl)ccc23)nc1C; 0.78

Values compiled from ChEMBL document CHEMBL2021854.
